Assay: amyloid nucleation score (Sup35N fusion, yeast selection) (log enrichment); library NNK3; higher = more nucleation; inactive = no reads after selection;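 also: zero at mode of non-aggregating sequences after 7 days selection at 30°C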
REPORTED PROPERTY: amyloid nucleation score

1. FVPNVRLTDLWRANKGIVSH    0.404
2. YCFVPRIMYMVCQYCVLTND    inactive
3. SRWYFGLLLMNNTHTVNVPL    inactive
4. LAFVANY    inactive
5. TIPLSFFDHI    inactive
6. TFAMGLSARSISYCTNTRCP    0.464
7. SGLRSTFDNTYTLYY    inactive
8. ALIYNATGLTYF    inactive
9. VVSIAIGKYNDRSMWW    1.75
10. KYYLALIYSKLRMIVSCFGF    0.033
11. VNKNVMWHDNNKFFHPFRAI    1.6
12. WRKTRGLNILRLWSLVSFRM    inactive
13. NIKFIEHLLSYSSTPQPLTC    inactive
14. SFNLNCDDQSRNYRADVSDS    1.16
15. YWSGRIKGTR    inactive
16. GDILGHRRHSVVRSRRQSLT    inactive
17. FILRDHRLSLSNCAMKCPQG    inactive

// provenance: the supplement of paper PMC12042874
